- TARGET DESC: CYP2D15 (Canis lupus familiaris)
- METHOD NOTES: in vitro
- ASSAY SETUP: dog, recombinant enzyme
MEASURE: inhibition at 5 min, 10 μM

Can you share its inhibition at 5 min, 10 μM? I mean this compound: C=C[C@H]1C[N@@]2CC[C@H]1C[C@@H]2[C@@H](O)c1ccnc2ccc(OC)cc12
> 70%

----------
Answer each item with its documented Km.
- Test system: dog liver microsomes
- Type: in vitro ADME
- ASSAY SETUP: formation of (+)-M5 from substrate; pDLM (liver microsomes pooled from 59 dogs)
Answers are plain numbers, in µM.

Can you share its Km? I mean this compound: CNCC1CCCCC1(O)c1cccc(OC)c1 (single isomer, unassigned; (+)) [(+)-M2, (+)-N-desmethyltramadol]
0.56

# context switch: different compound, same Km
Can you share its Km? I mean this compound: CN(C)CC1CCCCC1(O)c1cccc(O)c1.Cl (single isomer, unassigned; (+)) [(+)-M1, (+)-O-desmethyltramadol hydrochloride]
112

----------
- System: (+)-M5 formation from (+)-M1 in pooled DLMs
- METHOD NOTES: in vitro
- ASSAY SETUP: dog
MEASURE: inhibition at 20 min, 100 μM

Notebook: pull reported inhibition at 20 min, 100 μM for (+)-M5 formation from (+)-M1 in pooled DLMs, entry Nc1ccc(S(=O)(=O)Nc2ccnn2-c2ccccc2)cc1
> 50%

----------
- TARGET DESC: CYP2C21 (Canis lupus familiaris)
- Sequence (P56594 whole entry): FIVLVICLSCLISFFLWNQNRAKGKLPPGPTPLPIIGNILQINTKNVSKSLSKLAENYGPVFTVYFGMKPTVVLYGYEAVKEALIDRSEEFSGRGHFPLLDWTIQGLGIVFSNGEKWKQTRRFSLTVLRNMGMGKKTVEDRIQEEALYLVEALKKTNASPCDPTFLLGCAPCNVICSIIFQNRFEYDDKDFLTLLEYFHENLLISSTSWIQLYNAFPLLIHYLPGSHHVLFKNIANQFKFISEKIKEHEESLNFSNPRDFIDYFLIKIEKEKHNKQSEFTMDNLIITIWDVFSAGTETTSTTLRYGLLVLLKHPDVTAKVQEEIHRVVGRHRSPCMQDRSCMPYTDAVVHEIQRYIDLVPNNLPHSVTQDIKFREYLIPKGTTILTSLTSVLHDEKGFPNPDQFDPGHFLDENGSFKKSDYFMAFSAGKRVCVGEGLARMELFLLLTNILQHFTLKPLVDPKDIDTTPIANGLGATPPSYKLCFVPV
- METHOD NOTES: in vitro
- ASSAY SETUP: dog, recombinant enzyme
MEASURE: inhibition at 20 min, 100 μM

Can you share its inhibition at 20 min, 100 μM? I mean this compound: Nc1ccc(S(=O)(=O)Nc2ccnn2-c2ccccc2)cc1
> 50%

----------
- TARGET DESC: CYP2D15 (Canis lupus familiaris, UniProt Q29473)
- Sequence (Q29473 whole entry): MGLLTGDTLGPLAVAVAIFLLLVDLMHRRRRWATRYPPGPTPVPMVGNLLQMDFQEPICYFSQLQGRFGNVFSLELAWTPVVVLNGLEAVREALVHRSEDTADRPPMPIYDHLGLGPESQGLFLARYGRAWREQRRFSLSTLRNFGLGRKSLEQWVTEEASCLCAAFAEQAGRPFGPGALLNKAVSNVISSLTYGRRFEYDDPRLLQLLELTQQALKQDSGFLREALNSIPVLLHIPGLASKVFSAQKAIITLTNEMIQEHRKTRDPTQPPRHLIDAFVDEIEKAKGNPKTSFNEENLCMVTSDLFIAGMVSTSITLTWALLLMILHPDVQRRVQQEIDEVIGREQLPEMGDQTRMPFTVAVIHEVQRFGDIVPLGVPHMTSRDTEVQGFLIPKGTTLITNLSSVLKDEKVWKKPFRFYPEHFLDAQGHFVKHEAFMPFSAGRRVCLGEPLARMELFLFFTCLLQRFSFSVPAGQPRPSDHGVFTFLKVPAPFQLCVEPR
- METHOD NOTES: in vitro
- ASSAY SETUP: dog, recombinant enzyme
MEASURE: inhibition at 5 min, 100 μM

Can you share its inhibition at 5 min, 100 μM? I mean this compound: Nc1ccc(S(=O)(=O)Nc2ccnn2-c2ccccc2)cc1
< 50%

----------
- Test system: dog liver microsomes
- Type: in vitro ADME
- ASSAY SETUP: formation of (+)-M5 from substrate; Dog 46 liver microsomes
MEASURE: Km

Can you share its Km? I mean this molecule: CN(C)CC1CCCCC1(O)c1cccc(O)c1.Cl (single isomer, unassigned; (+)) [(+)-M1, (+)-O-desmethyltramadol hydrochloride]
108 µM

Continuing:
Can you share its Km? I mean this molecule: CNCC1CCCCC1(O)c1cccc(OC)c1 (single isomer, unassigned; (+)) [(+)-M2, (+)-N-desmethyltramadol]
0.38 µM

----------
- System: dog liver microsomes
- Assay type: in vitro ADME
- ASSAY SETUP: formation of (+)-M5 from substrate; Dog 10 liver microsomes
Answer each item with its documented Km.
One number for each entry, in µM.

Dear colleague, could you please provide Km for the molecules listed below?
1. CNCC1CCCCC1(O)c1cccc(OC)c1 (single isomer, unassigned; (+)) [(+)-M2, (+)-N-desmethyltramadol]
2. CN(C)CC1CCCCC1(O)c1cccc(O)c1.Cl (single isomer, unassigned; (+)) [(+)-M1, (+)-O-desmethyltramadol hydrochloride]

[0.46, 158]

----------
- Tested on: (+)-M5 formation from (+)-M2 in pooled DLMs
- METHOD NOTES: in vitro
- ASSAY SETUP: dog
MEASURE: inhibition at 5 min, 100 μM

Can you share its inhibition at 5 min, 100 μM? I mean this molecule: Nc1ccc(S(=O)(=O)Nc2ccnn2-c2ccccc2)cc1
< 50%
